Conditions: acidic group
Measured pKa, listed per entry.
Keep it simple and answer with nothing but the number.

Use the examples below as a reference point.
| compound | pKa |
| --- | --- |
| C[C@@H]1CC[C@H](C)[C@@H]1C(=O)O | 5.4 |
| O=[N+]([O-])c1ccc2c(c1)C([P+](c1ccccc1)(c1ccccc1)c1ccccc1)c1ccccc1-2.[Br-] (configuration not stated) | 5.36 |
| CC(=O)NS(=O)(=O)c1ccc(C)cc1 | 4.8 |
| NC(=O)c1cc(-c2ccccc2)nnc1NCCN1CCOCC1 | 6.85 |
| [O-]c1nc(C(F)(F)F)nc2nc[nH]c12 | 11.2 |
| CNc1ncnc2nc[nH]c12 | 10 |
| Nc1ccc(S(=O)(=O)NCc2ccco2)cc1 | 10.9 |
| NNC(=O)CF | 11.3 |

# evaluate next
Ask | Could you tell me which pKa is on file for N#CC(C#N)=C(Br)C(C#N)C#N ?
Reply | 2.6

---

Conditions: acidic group
Here, each record is paired with measured pKa data.
# print the numeric value only

Here is how some molecules turned out for pKa.
| molecule | result value |
| --- | --- |
| Clc1cccc(-c2nnn[nH]2)c1 | 3.61 |
| NS(=O)(=O)c1ccc(C(=O)O)cc1 | 3.53 |
| Cc1cc2nnn(O)c2cc1Cl | 4.57 |
| C[Si](C)(C)CCCCCC(=O)O | 5.06 |
| O=C(O)CSC(c1ccccc1)(c1ccccc1)c1ccccc1 | 4.32 |
| O=S1(=O)N=CNc2nc[nH]c21 | 5.59 |
| N#Cc1ccc(C(=O)S)cc1 | 1.42 |
| Oc1ccccc1C1=[NH+]CCN1 | 6.63 |
| O=c1cc(-c2ccc(O)cc2)ss1 | 8.27 |
| O=C(O)[C@@H]1C[C@@H]1Cl | 4.12 |

Ask | I would be grateful if you could share the reported pKa for Nc1nc2[nH]cnc2c(O)[nH+]1 .
Reply | 3

Ask | GET /values?readout=pKa&item= Cc1ncc2c(c1O)C(=O)OC2
Reply | 7.05

---

Conditions: basic group
We use 9 as the dividing line for pKa: on or above the line is label 1, below is label 0.

Ask | Check if pKa >= 9 (inclusive). Item: CC(Cl)CN (centres undefined)
Reply | label 0

Ask | Answer whether pKa of Nc1ccc(B(O)O)cc1 is greater than or equal to 9.
Reply | label 0

Ask | Could you tell me if the measured pKa of CCOC(=O)c1cc(-c2ccccc2)nnc1NCCN1CCOCC1 reaches 9 or more?
Reply | label 0

Ask | Check the entry C1CCN(C2CCNCC2)CC1 : does pKa equal or exceed 9?
Reply | label 1

Ask | Dear colleague, could you confirm whether CC/C(N)=N/O has pKa at or above 9?
Reply | label 0

Ask | Does the reported pKa for Oc1ccc2c(c1)ncc1ccccc12 fall at or above the 9 mark?
Reply | label 0

Ask | Has C1CCCNCCC1 a recorded pKa greater than or equal to 9?
Reply | label 1

Ask | Identify whether the reported pKa of the following compound is 9 or greater: Cc1cccc2[nH]cnc12
Reply | label 0

Ask | // inclusive: pKa at least 9? input: COc1ccc(-c2nc3cnccc3n2C)c(OC)c1
Reply | label 0

---

Conditions: acidic group
Where pKa equals or exceeds 6, the correct label is true (1); where it does not, the label is false (0).

Reference set, count: 3
| compound | label value |
| --- | --- |
| Cn1ccnc1CS | true (1) |
| NC(=O)c1ccc(N)cc1O | true (1) |
| O=C([O-])[C@H](NCC[NH2+][C@@H](C(=O)[O-])c1ccccc1O)c1ccccc1O | true (1) |

Ask | Say whether O=C(c1ccc(Cl)cc1)c1cc[nH]n1 shows pKa of 6 or more.
Reply | true (1)

Ask | API: above_or_equal(metric=pKa, cutoff=6) for item Oc1cccc(Cl)c1Cl
Reply | true (1)

Ask | Assess whether reported pKa for CC(C)Nc1ncnc2[nH]ncc12 sits at 6 or higher.
Reply | true (1)
